Data origin: ChEMBL document CHEMBL5506059

# MIC values compiled below
- Tested on: Escherichia coli
- measurementNotes: Antibacterial activity against Escherichia coli clinical isolate assessed as inhibition of bacterial growth incubated for 24 hrs
- Format: functional
measuredProperty: MIC (µg/mL)

>>> assayvalue("O=C(O)Cc1cc2c(cc1F)c(=O)c(C(=O)O)cn2Cc1ccccc1Cl")
32
>>> assayvalue("N#CCc1cc2c(cc1F)c(=O)c(C(=O)O)cn2Cc1ccc(F)cc1F")
0.5
>>> assayvalue("CCn1cc(C(=O)O)c(=O)c2cc(F)c(CC(=O)O)cc21")
8
>>> assayvalue("N#CCc1cc2c(cc1F)c(=O)c(C(=O)O)cn2CCN1CCOCC1")
16
>>> assayvalue("CCCCn1cc(C(=O)O)c(=O)c2cc(F)c(CC#N)cc21")
4
>>> assayvalue("Cc1ccc(Cn2cc(C(=O)O)c(=O)c3cc(F)c(CC#N)cc32)cc1")
256
>>> assayvalue("N#CCc1cc2c(cc1F)c(=O)c(C(=O)O)cn2CC1CC1")
1
>>> assayvalue("N#CCc1cc2c(cc1F)c(=O)c(C(=O)O)cn2Cc1ccc(Cl)cc1Cl")
1
>>> assayvalue("N#CCc1cc2c(cc1F)c(=O)c(C(=O)O)cn2Cc1ccc(Cl)cc1")
256
>>> assayvalue("N#CCc1cc2c(cc1F)c(=O)c(C(=O)O)cn2Cc1c(F)cccc1F")
32

---

Quick reference for MIC among some molecules
- Test system: Staphylococcus aureus
- measurementNotes: Antibacterial activity against Staphylococcus aureus clinical isolate assessed as inhibition of bacterial growth incubated for 24 hrs
- Type: functional
measuredProperty: MIC (µg/mL)

>>> assayvalue("CCCn1cc(C(=O)O)c(=O)c2cc(F)c(CC#N)cc21")
4
>>> assayvalue("O=C(O)Cc1cc2c(cc1F)c(=O)c(C(=O)O)cn2C1CC1")
4
>>> assayvalue("N#CCc1cc2c(cc1F)c(=O)c(C(=O)O)cn2Cc1ccccc1")
256
>>> assayvalue("CCn1cc(C(=O)O)c(=O)c2cc(F)c(CC(=O)O)cc21")
64
>>> assayvalue("CCCCCCn1cc(C(=O)O)c(=O)c2cc(F)c(CC#N)cc21")
256
>>> assayvalue("N#CCc1cc2c(cc1F)c(=O)c(C(=O)O)cn2Cc1ccc(C(F)(F)F)cc1")
8
>>> assayvalue("N#CCc1cc2c(cc1F)c(=O)c(C(=O)O)cn2CC1CCCC1")
128
>>> assayvalue("CCCCn1cc(C(=O)O)c(=O)c2cc(F)c(CC#N)cc21")
8
>>> assayvalue("N#CCc1cc2c(cc1F)c(=O)c(C(=O)O)cn2Cc1ccc(F)cc1F")
256
>>> assayvalue("Cn1cc(C(=O)O)c(=O)c2cc(F)c(CC#N)cc21")
1
>>> assayvalue("C#CCn1cc(C(=O)O)c(=O)c2cc(F)c(CC#N)cc21")
256

---

Below is a list of entries, each paired with its recorded log10(MIC) value.
- System: Staphylococcus aureus
- measurementNotes: Antibacterial activity against Staphylococcus aureus clinical isolate assessed as inhibition of bacterial growth incubated for 24 hrs
- Assay type: functional
measuredProperty: log10(MIC) (log10 of the value in µg/mL)

>>> assayvalue("C=CCn1cc(C(=O)O)c(=O)c2cc(F)c(CC#N)cc21")
0.30
>>> assayvalue("N#CCc1cc2c(cc1F)c(=O)c(C(=O)O)cn2Cc1ccccc1Cl")
2.41
>>> assayvalue("N#CCc1cc2c(cc1F)c(=O)c(C(=O)O)cn2Cc1c(F)cccc1F")
0.60
>>> assayvalue("O=C(O)Cc1cc2c(cc1F)c(=O)c(C(=O)O)cn2Cc1ccccc1")
1.51
>>> assayvalue("C[C@H]1COc2c(CC#N)c(F)cc3c(=O)c(C(=O)O)cn1c23")
-0.60
>>> assayvalue("NC1CCN(c2c(F)cc3c(=O)c(C(=O)O)cn(C4CC4)c3c2Cl)C1 (centres undefined)")
-0.30
>>> assayvalue("N#CCc1cc2c(cc1F)c(=O)c(C(=O)O)cn2Cc1ccc(Cl)c(Cl)c1")
2.41
>>> assayvalue("N#CCc1cc2c(cc1F)c(=O)c(C(=O)O)cn2CC1CCC1")
1.81
>>> assayvalue("CCCCCCCCn1cc(C(=O)O)c(=O)c2cc(F)c(CC#N)cc21")
2.41
>>> assayvalue("N#CCc1cc2c(cc1F)c(=O)c(C(=O)O)cn2Cc1cccc(Cl)c1")
2.41
>>> assayvalue("N#CCc1cc2c(cc1F)c(=O)c(C(=O)O)cn2Cc1cc(F)ccc1F")
0.60
>>> assayvalue("C[C@H]1COc2c(CC(=O)O)c(F)cc3c(=O)c(C(=O)O)cn1c23")
1.20
>>> assayvalue("Cc1ccc(Cn2cc(C(=O)O)c(=O)c3cc(F)c(CC#N)cc32)cc1")
2.41
>>> assayvalue("N#CCc1cc2c(cc1F)c(=O)c(C(=O)O)cn2Cc1ccccn1")
2.41
